This collection of values is drawn from the Immune Epitope Database (IEDB).

- assayedSystem: HLA-A*69:01
- testDetails: IEDB peptide-MHC binding, purified MHC/competitive/fluorescence; filed as Kd, often an IC50 or EC50 that approximates it; bounds were set here for any values at or beyond the usual limits of such assays
- conditionsUsed: source organism: Homo sapiens
property: Kd

Can you share its Kd? I mean this sequence: `FMDPGIFPR`
≥ 20 µM

* * *

- assayedSystem: HLA-A*11:01
- testDetails: IEDB peptide-MHC binding, purified MHC/competitive/fluorescence; filed as Kd, often an IC50 or EC50 that approximates it; bounds were set here for any values at or beyond the usual limits of such assays
- conditionsUsed: source organism: Mycobacterium tuberculosis variant bovis BCG str. Pasteur 1173P2
property: Kd

Look up Kd: `YPARVKCAL`
≥ 20 µM
